- TARGET_DESC: DAPK2 (human) (UniProt Q9UIK4)
- Sequence (Q9UIK4 whole entry, looked up): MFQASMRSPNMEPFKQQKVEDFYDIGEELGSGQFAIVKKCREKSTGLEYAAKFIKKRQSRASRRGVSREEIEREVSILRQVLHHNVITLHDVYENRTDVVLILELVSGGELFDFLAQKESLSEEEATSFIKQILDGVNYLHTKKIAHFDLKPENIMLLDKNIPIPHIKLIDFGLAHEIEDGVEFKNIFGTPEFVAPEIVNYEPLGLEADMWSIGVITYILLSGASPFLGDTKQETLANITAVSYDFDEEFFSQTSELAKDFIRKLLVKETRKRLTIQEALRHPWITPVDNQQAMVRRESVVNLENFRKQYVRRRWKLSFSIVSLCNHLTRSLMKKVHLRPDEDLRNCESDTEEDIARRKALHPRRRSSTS
- METHOD_SUMMARY: radiometric filter-binding kinase assay, Kinase HotSpot
- MEASUREMENT_CONTEXT: compound 0.5 µM; ATP 10 µM
VALUE_TYPE: residual activity (%)
The reply should contain only the number, in %.

Study these solved cases before continuing.
| CHEMICAL_SMILES | residual activity (%) |
| --- | --- |
| FC(F)(F)c1ccc(/C=C/c2nc(COc3ccc(CCCCn4ccnn4)cc3)co2)cc1 | 107 |
| O=c1[nH]c2ccccc2n1C1CCN(Cc2ccc(-c3nc4cc5[nH]cnc5cc4nc3-c3ccccc3)cc2)CC1 | 99 |
| COc1cc2c(cc1OC)-c1[nH]nc(Nc3cccc(F)c3)c1C2 | 86.7 |
| CCCCc1c(-c2ccc(O)cc2)[nH]c2nccnc12 | 101 |

# input for lookup
Exercise: Could you tell me which residual activity is on file for `CCc1nc(-c2ccc(OC)cc2)[nH]c1-c1ccncc1` ?
Key: 104
